protocol-text: Intrinsic clearance in rat liver microsomes was determined
Assay type: ADME, Microsome
condition-details: read-out: Clearance
# key: entry, value: microsomal CLint
The reply should be a number in µL/min/mg, with the unit left off.

{"chem-smiles": "CC[C@H](C)C(=O)O[C@H]1C[C@@H](C)C=C2C=C[C@H](C)[C@H](CC[C@@H]3C[C@H](CC(=O)NC)N(Cc4ccc(C(=O)O)cc4)C(=O)O3)[C@H]21", "measured-value": 214}

// switching to the query molecule
State the recorded microsomal CLint for this entry: CC[C@H](C)C(=O)O[C@H]1C[C@@H](C)C=C2C=C[C@H](C)[C@H](CC[C@@H]3C[C@H](CC(=O)NC)N(Cc4ccc5c(c4)OCO5)C(=O)O3)[C@H]21
100

====

tested-on: Intercellular adhesion molecule (ICAM-1), Integrin alpha-L/beta-2 (Homo sapiens, UniProt P05107+P20701)
Sequence (P20701 whole entry): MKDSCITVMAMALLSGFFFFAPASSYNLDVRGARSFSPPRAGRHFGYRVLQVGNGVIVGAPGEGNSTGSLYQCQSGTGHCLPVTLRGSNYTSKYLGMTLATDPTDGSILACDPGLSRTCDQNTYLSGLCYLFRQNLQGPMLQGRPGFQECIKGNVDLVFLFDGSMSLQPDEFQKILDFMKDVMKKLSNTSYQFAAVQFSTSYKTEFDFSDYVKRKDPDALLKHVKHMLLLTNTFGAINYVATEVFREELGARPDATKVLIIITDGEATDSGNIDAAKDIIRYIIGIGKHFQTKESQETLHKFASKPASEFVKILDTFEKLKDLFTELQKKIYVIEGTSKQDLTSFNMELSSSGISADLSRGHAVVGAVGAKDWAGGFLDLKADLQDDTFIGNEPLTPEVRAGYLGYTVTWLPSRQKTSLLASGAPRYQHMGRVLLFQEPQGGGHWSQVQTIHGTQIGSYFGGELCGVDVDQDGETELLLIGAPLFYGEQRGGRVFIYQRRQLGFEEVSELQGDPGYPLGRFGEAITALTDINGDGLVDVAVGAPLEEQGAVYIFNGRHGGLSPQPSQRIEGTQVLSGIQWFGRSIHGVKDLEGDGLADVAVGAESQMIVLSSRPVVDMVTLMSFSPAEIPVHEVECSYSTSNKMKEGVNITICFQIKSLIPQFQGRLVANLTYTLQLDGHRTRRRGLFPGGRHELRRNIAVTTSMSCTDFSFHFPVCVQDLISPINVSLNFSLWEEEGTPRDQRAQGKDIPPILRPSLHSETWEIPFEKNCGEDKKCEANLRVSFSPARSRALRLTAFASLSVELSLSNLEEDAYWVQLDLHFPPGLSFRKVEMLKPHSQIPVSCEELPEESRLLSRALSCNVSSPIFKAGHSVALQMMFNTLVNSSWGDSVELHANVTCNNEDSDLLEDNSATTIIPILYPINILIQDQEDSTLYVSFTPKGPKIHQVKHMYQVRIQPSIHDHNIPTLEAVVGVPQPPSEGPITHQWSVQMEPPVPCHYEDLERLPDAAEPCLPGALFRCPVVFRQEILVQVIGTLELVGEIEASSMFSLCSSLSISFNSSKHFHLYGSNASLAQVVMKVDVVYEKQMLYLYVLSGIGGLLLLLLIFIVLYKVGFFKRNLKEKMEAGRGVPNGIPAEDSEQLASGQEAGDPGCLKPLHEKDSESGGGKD
Sequence (P05362 whole entry, further chain): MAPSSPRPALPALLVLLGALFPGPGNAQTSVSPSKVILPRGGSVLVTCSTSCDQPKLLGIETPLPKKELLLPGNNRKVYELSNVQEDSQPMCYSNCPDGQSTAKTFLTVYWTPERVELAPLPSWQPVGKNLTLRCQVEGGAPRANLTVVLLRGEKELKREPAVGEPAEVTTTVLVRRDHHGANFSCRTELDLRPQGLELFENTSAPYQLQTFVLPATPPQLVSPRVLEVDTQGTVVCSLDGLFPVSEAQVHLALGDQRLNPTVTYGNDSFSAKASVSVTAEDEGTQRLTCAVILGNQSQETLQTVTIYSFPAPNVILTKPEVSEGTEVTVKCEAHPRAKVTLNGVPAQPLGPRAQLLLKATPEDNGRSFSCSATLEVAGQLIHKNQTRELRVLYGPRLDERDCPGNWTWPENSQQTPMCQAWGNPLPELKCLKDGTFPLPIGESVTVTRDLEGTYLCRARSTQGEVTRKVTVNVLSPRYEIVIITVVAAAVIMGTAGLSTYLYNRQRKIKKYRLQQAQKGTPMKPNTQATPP
Sequence (P05107 whole entry): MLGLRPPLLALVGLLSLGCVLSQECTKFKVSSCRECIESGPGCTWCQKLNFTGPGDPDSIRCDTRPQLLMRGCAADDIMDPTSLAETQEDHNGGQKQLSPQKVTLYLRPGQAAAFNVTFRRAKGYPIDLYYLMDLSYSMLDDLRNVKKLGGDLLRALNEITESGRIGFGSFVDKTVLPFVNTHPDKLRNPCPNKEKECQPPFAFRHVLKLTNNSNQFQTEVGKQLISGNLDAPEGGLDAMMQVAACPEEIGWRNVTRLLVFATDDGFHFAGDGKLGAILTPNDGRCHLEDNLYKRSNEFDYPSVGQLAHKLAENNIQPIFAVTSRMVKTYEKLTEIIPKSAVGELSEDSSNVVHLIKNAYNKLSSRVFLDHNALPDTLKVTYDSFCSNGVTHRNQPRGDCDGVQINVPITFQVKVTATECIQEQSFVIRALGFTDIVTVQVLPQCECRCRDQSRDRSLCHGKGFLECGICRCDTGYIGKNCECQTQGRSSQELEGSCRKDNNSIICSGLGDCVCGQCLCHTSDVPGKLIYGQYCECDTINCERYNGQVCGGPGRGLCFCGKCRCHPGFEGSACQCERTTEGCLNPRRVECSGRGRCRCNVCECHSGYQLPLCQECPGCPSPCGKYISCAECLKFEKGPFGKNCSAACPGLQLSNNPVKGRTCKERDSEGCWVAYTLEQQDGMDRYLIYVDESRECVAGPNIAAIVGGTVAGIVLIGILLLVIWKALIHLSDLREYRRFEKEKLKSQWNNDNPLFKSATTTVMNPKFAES
protocol-text: In vitro inhibition of recombinant ICAM-1 binding to purified immobilized LFA-1 using cell-free assay
Type: functional
pIC50: −log10 of the molar value.
observable: pIC50

{"chem-smiles": "CC[C@H](C)C(=O)O[C@H]1C[C@@H](C)C=C2C=C[C@H](C)[C@H](CC[C@@H]3C[C@H](CC(=O)NC)N(Cc4ccc5c(c4)OCO5)C(=O)O3)[C@H]21", "observable": "pIC50", "measured-value": 6.77}
{"chem-smiles": "CC[C@H](C)C(=O)O[C@H]1C[C@@H](C)C=C2C=C[C@H](C)[C@H](CC[C@@H]3C[C@H](CC(=O)OC)N(Cc4ccc5c(c4)OCO5)C(=O)O3)[C@H]21", "observable": "pIC50", "measured-value": 6.00}
{"chem-smiles": "CC[C@H](C)C(=O)O[C@H]1C[C@@H](C)C=C2C=C[C@H](C)[C@H](CC[C@@H]3C[C@H](CC(=O)OC)N(CCc4ccc(O)c(OC)c4)C(=O)O3)[C@H]21", "observable": "pIC50", "measured-value": 6.19}

====

tested-on: Intercellular adhesion molecule (ICAM-1), Integrin alpha-L/beta-2 (Homo sapiens, UniProt P05107+P20701)
protocol-text: In vitro inhibition of recombinant ICAM-1 binding to purified immobilized LFA-1 using cell-free assay
Assay type: functional
observable: IC50 (nM)

Consider the reported IC50 for these molecules:
{"chem-smiles": "CC[C@H](C)C(=O)O[C@H]1C[C@@H](C)C=C2C=C[C@H](C)[C@H](CC[C@@H]3C[C@H](CC(=O)OC)N(Cc4ccc(O)c(OC)c4)C(=O)O3)[C@H]21", "IC50, nM": 50}
{"chem-smiles": "CC[C@H](C)C(=O)O[C@H]1C[C@@H](C)C=C2C=C[C@H](C)[C@H](CC[C@@H]3C[C@H](CC(=O)NC)N(Cc4ccc5c(c4)OC(F)(F)O5)C(=O)O3)[C@H]21", "IC50, nM": 1150}
{"chem-smiles": "CC[C@H](C)C(=O)O[C@H]1C[C@@H](C)C=C2C=C[C@H](C)[C@H](CC[C@@H]3C[C@H](CC(=O)OC)N(Cc4cccc(OC)c4)C(=O)O3)[C@H]21", "IC50, nM": 680}

I. CC[C@H](C)C(=O)O[C@H]1C[C@@H](C)C=C2C=C[C@H](C)[C@H](CC[C@@H]3C[C@H](CC(=O)NC)N(Cc4ccc(C(=O)NC)cc4)C(=O)O3)[C@H]21
II. CC[C@H](C)C(=O)O[C@H]1C[C@@H](C)C=C2C=C[C@H](C)[C@H](CC[C@@H]3C[C@H](CC(=O)NC)N(Cc4cccc(OC)c4)C(=O)O3)[C@H]21
// compare: I vs II , metric IC50, want the smaller Label of pick, please.
II
(II: 270 nM, I: 620 nM)

====

Tested on: Mus musculus
protocol-text: Anti-inflammatory activity against murine model of allergic contact dermatitis (mACD) after single oral administration (0.1 mg/kg) (in vivo)
Format: functional
Known Inhibition of a selection of molecules
Give just the numeric value; % need not be written.

For the molecule shown here, CC[C@H](C)C(=O)O[C@H]1C[C@@H](C)C=C2C=C[C@H](C)[C@H](CC[C@@H]3C[C@H](CC(=O)OC)N(Cc4ccc(O)c(OC)c4)C(=O)O3)[C@H]21 , give the reported Inhibition.
16

====

tested-on: Intercellular adhesion molecule (ICAM-1), Integrin alpha-L/beta-2 (Homo sapiens, UniProt P05107+P20701)
protocol-text: Inhibition of HUT78 cell adhesion to immobilized ICAM-1 protein
Format: functional, cell-based
pIC50: −log10 of the molar value.
observable: pIC50

In the examples that follow, each entry is paired with its recorded pIC50.
{"chem-smiles": "CC[C@H](C)C(=O)O[C@H]1C[C@@H](C)C=C2C=C[C@H](C)[C@H](CC[C@@H]3C[C@H](CC(=O)OC)N(Cc4ccc(C(C)(C)O)cc4)C(=O)O3)[C@H]21", "observable": "pIC50", "measured-value": 5.11}
{"chem-smiles": "CC[C@H](C)C(=O)O[C@H]1C[C@@H](C)C=C2C=C[C@H](C)[C@H](CC[C@@H]3C[C@H](CC(=O)OC)N(Cc4cccc(OC)c4)C(=O)O3)[C@H]21", "observable": "pIC50", "measured-value": 5.35}
{"chem-smiles": "CC[C@H](C)C(=O)O[C@H]1C[C@@H](C)C=C2C=C[C@H](C)[C@H](CC[C@@H]3C[C@H](CC(=O)OC)N(Cc4ccc(O)c(OC)c4)C(=O)O3)[C@H]21", "observable": "pIC50", "measured-value": 6.92}
{"chem-smiles": "CC[C@H](C)C(=O)O[C@H]1C[C@@H](C)C=C2C=C[C@H](C)[C@H](CC[C@@H]3C[C@H](CC(=O)OC)N(CCc4ccc(O)c(OC)c4)C(=O)O3)[C@H]21", "observable": "pIC50", "measured-value": 4.69}
{"chem-smiles": "CC[C@H](C)C(=O)O[C@H]1C[C@@H](C)C=C2C=C[C@H](C)[C@H](CC[C@@H]3C[C@H](CC(=O)OC)N(Cc4ccc5c(c4)OCO5)C(=O)O3)[C@H]21", "observable": "pIC50", "measured-value": 5.59}

A. CC[C@H](C)C(=O)O[C@H]1C[C@@H](C)C=C2C=C[C@H](C)[C@H](CC[C@@H]3C[C@H](CC(=O)NC)N(CCc4ccc(O)c(OC)c4)C(=O)O3)[C@H]21
B. CC[C@H](C)C(=O)O[C@H]1C[C@@H](C)C=C2C=C[C@H](C)[C@H](CC[C@@H]3C[C@H](CC(=O)NC)N(Cc4ccc5c(c4)OC(F)(F)O5)C(=O)O3)[C@H]21
Between A and B , whose recorded pIC50 is greater? Choose, then provide that item's label.
B

1. CC[C@H](C)C(=O)O[C@H]1C[C@@H](C)C=C2C=C[C@H](C)[C@H](CC[C@@H]3C[C@H](CC(=O)NC)N(Cc4ccc(O)c(OC)c4)C(=O)O3)[C@H]21
2. CC[C@H](C)C(=O)O[C@H]1C[C@@H](C)C=C2C=C[C@H](C)[C@H](CC[C@@H]3C[C@H](CC(=O)NC)N(Cc4cccc(OC)c4)C(=O)O3)[C@H]21
Please choose the item with the lower pIC50 value from this pair: 1 and 2 // caller expects the label of the chosen entry
2

====

protocol-text: Intrinsic clearance in human liver microsomes was determined
Assay type: ADME, Microsome
condition-details: read-out: Clearance
observable: microsomal CLint (µL/min/mg)
The answer is to be given in µL/min/mg; state only the numeric part.

Which microsomal CLint value belongs to CC[C@H](C)C(=O)O[C@H]1C[C@@H](C)C=C2C=C[C@H](C)[C@H](CC[C@@H]3C[C@H](CC(=O)NC)N(Cc4ccc5c(c4)OCO5)C(=O)O3)[C@H]21 ?
383

Recorded microsomal CLint of CC[C@H](C)C(=O)O[C@H]1C[C@@H](C)C=C2C=C[C@H](C)[C@H](CC[C@@H]3C[C@H](CC(=O)NC)N(Cc4cccc(OC)c4)C(=O)O3)[C@H]21 , please.
55

====

Each record here notes measured microsomal CLint.
protocol-text: Intrinsic clearance in human liver microsomes was determined
Assay type: ADME, Microsome
condition-details: read-out: Clearance

{"chem-smiles": "CC[C@H](C)C(=O)O[C@H]1C[C@@H](C)C=C2C=C[C@H](C)[C@H](CC[C@@H]3C[C@H](CC(=O)NC)N(Cc4ccc(O)c(OC)c4)C(=O)O3)[C@H]21", "microsomal CLint": "> 500 µL/min/mg"}
{"chem-smiles": "CC[C@H](C)C(=O)O[C@H]1C[C@@H](C)C=C2C=C[C@H](C)[C@H](CC[C@@H]3C[C@H](CC(=O)NC)N(Cc4ccc(C(=O)O)cc4)C(=O)O3)[C@H]21", "microsomal CLint": "205 µL/min/mg"}
{"chem-smiles": "CC[C@H](C)C(=O)O[C@H]1C[C@@H](C)C=C2C=C[C@H](C)[C@H](CC[C@@H]3C[C@H](CC(=O)NC)N(Cc4ccc(C(C)(C)O)cc4)C(=O)O3)[C@H]21", "microsomal CLint": "> 500 µL/min/mg"}
{"chem-smiles": "CC[C@H](C)C(=O)O[C@H]1C[C@@H](C)C=C2C=C[C@H](C)[C@H](CC[C@@H]3C[C@H](CC(=O)NC)N(CCc4ccc(O)c(OC)c4)C(=O)O3)[C@H]21", "microsomal CLint": "> 500 µL/min/mg"}

Let us examine a further case.
Any idea what microsomal CLint was measured for CC[C@H](C)C(=O)O[C@H]1C[C@@H](C)C=C2C=C[C@H](C)[C@H](CC[C@@H]3C[C@H](CC(=O)NC)N(Cc4ccc(C(=O)NC)cc4)C(=O)O3)[C@H]21 ?
> 500 µL/min/mg
